Recorded IC50 by entry
Test: Antagonist activity at human CCR3 receptor assessed as inhibition of chemotaxis in eosinophil
Number only, in pM; omit the unit.

In the examples that follow, each entry is paired with its recorded IC50.
CCc1cc(NC(=O)N[C@H](C)[C@@H](O)CN(CC)CCCc2ccc(F)cc2)cc(-c2nnnn2C)c1: 4
C[C@@H](NC(=O)Nc1cccc(-c2nnnn2C)c1)[C@@H](O)CN(C)[C@@H](C)[C@@H](O)c1ccccc1: 22000
CCc1cc(NC(=O)N[C@H](C)[C@@H](O)CN(C)CCCc2ccc(F)cc2)cc(-c2nnnn2C)c1: 2600
CCc1cc(NC(=O)N[C@H](C)[C@@H](O)CN(CCCc2ccc(F)cc2)CC2CC2)cc(-c2nnnn2C)c1: 5

# context switch: different compound, same IC50
Input: # IC50 lookup, item C[C@@H](NC(=O)Nc1cccc(-c2nnnn2C)c1)[C@@H](O)CN1CCC[C@@H](Cc2ccc(F)cc2)C1
Output: 38
